Test system: T47D (human ductal breast epithelial tumor cell line)
Test: Antiproliferative WST-1 assay, breast tumor T47D
Type: cell-based
Settings: Homo sapiens; T47D cells, 72 h exposure, WST-1; read-out: Antiproliferative activity EC50 T47-D
Consider the cut-off 40 µg/mL. If the recorded EC50 is strictly smaller, the label is yes; if not, the label is no.

Asked: Confirm or reject: EC50 of CSc1nc(S(N)(=O)=O)c2c(ncn2C)n1 [Compound 8c] lies strictly below 40 µg/mL
Given back: no

Asked: Confirm or reject: EC50 of Cn1cnc2nc(SCCN3CCCC3)nc(SCCN3CCCC3)c21 [Compound 4e] lies strictly below 40 µg/mL
Given back: yes

Asked: Confirm or reject: EC50 of C=CCSc1nc(Sc2c([N+](=O)[O-])ncn2C)nc2ncn(C)c12 [Compound 2b] lies strictly below 40 µg/mL
Given back: no

Asked: Confirm or reject: EC50 of Cn1cnc2nc(S(N)(=O)=O)nc(S(N)(=O)=O)c21 [Compound 8d, 7-Methyl-2,6-purinedisulfonamide] lies strictly below 40 µg/mL
Given back: no

Asked: Confirm or reject: EC50 of Cn1cnc2nc(SCCN3CCCCC3)nc(SCCN3CCCCC3)c21 [Compound 4f] lies strictly below 40 µg/mL
Given back: yes

More entries:
Asked: Confirm or reject: EC50 of Cn1cnc([N+](=O)[O-])c1Sc1nc(Sc2c([N+](=O)[O-])ncn2C)c2c(ncn2C)n1 [Compound 3d] lies strictly below 40 µg/mL
Given back: no

Asked: Confirm or reject: EC50 of Cn1cnc2nc(Cl)nc(SCC#CCN3CCCC3)c21 [Compound 5b] lies strictly below 40 µg/mL
Given back: no

Asked: Confirm or reject: EC50 of C#CCSc1nc(Cl)nc2ncn(C)c12 [Compound 5a] lies strictly below 40 µg/mL
Given back: no

Asked: Confirm or reject: EC50 of Cn1cnc2nc(Cl)nc(SN)c21 [Compound 10a, 2-Chloro-7-methyl-6-purinesulfenamide] lies strictly below 40 µg/mL
Given back: no

Asked: Confirm or reject: EC50 of CCN(CC)CCSc1nc(Cl)nc2ncn(C)c12 [Compound 4a] lies strictly below 40 µg/mL
Given back: no

Asked: Confirm or reject: EC50 of CN(C)CCCSc1nc(Cl)nc2ncn(C)c12 [Compound 4b] lies strictly below 40 µg/mL
Given back: no

Asked: Confirm or reject: EC50 of Cn1cnc2nc(SCCN3CCOCC3)nc(SCCN3CCOCC3)c21 [Compound 4g] lies strictly below 40 µg/mL
Given back: no

====

Test system: T47D (human ductal breast epithelial tumor cell line)
Experiment: Antiproliferative WST-1 assay, breast tumor T47D
Assay type: cell-based
Settings: Homo sapiens; T47D cells, 72 h exposure, WST-1; read-out: Antiproliferative activity EC50 T47-D
Observation type: EC50 (µg/mL)
Please respond with the number in µg/mL and leave the unit unwritten.

Please review the following examples before continuing.
Asked: Would you mind telling me what EC50 value was observed for Cn1cnc([N+](=O)[O-])c1Sc1ncnc2nc[nH]c12 [Azathioprine, reference compound] ?
Given back: 39

Asked: Would you mind telling me what EC50 value was observed for Cn1cnc([N+](=O)[O-])c1Sc1nc(Cl)c2c(ncn2C)n1 [Compound 2a] ?
Given back: 41.1

Asked: Would you mind telling me what EC50 value was observed for CSc1nc(Sc2c([N+](=O)[O-])ncn2C)c2c(ncn2C)n1 [Compound 3c] ?
Given back: 48.6

Read the next record carefully.
Asked: Would you mind telling me what EC50 value was observed for CCN(CC)CCSc1nc(SCCN(CC)CC)c2c(ncn2C)n1 [Compound 4c] ?
Given back: 24
